# Test system: Calu-3
# protocol-text: cell viability relative to DMSO; higher = less toxic
# condition-description: 72 h; 100 nM
Listed next: entries and their corresponding cell viability.
All answers are understood in %, so give the number only.

{"compound": "Cc1cccc(NC(=O)CN2CCC(c3ccccn3)CC2)c1", "measured-result": 109}
{"compound": "COc1ccc(COc2cc3oc(=O)c4cc(C(C)O)ccc4c3cc2OC)cc1 (stereo not given) [palomid-529]", "measured-result": 84.8}
{"compound": "CC(C)(O)c1coc(S(=O)(=O)NC(=O)Nc2c3c(cc4c2CCC4)CCC3)c1 [MCC950]", "measured-result": 100}
{"compound": "CCOc1cc(C(=O)Nc2ccc(Cl)c(-c3nc4ccccc4[nH]3)c2)cc(OCC)c1OCC [SANT-2]", "measured-result": 97.5}

# ---- query compound ----
What measured cell viability goes with O=C1NC(=S)NC(=O)C1C(=O)Nc1ccccc1 [merbarone] ?
105

---

# Tested on: Caco-2
# protocol-text: drug sensitivity score (DSS) for viability; higher = more toxic; extreme values may be limits of the assay
# condition-description: 72 h
measurement-type: drug sensitivity score
No unit in the answer, please; the number alone is enough.

{"structure-smiles-string": "Cc1cc2c(s1)Nc1ccccc1N=C2N1CCN(C)CC1", "drug sensitivity score": 0}
{"structure-smiles-string": "Cc1c(C)c(NCC(=O)N(C)C2CCN(Cc3ccc(C(N)=O)cc3)CC2)c(C)c(C)c1N", "drug sensitivity score": 0}
{"structure-smiles-string": "COc1cc2c(NC3CCN(C(C)C)CC3)nc(C3CCCCC3)nc2cc1OCCCN1CCCC1", "drug sensitivity score": 0}
{"structure-smiles-string": "O=C1Cc2cc(CCN3CCN(c4nsc5ccccc45)CC3)c(Cl)cc2N1", "drug sensitivity score": 0.8}
{"structure-smiles-string": "Cc1ccc(NC(=O)Nc2cc(C(F)(F)F)ccc2F)cc1Nc1ccc2c(c1)NC(=O)/C2=C\\c1ccc[nH]1", "drug sensitivity score": 1.7}

Can you look up the measured drug sensitivity score of CCS(=O)(=O)N1CCC[C@@H]2CN3CCc4cc(OC)ccc4[C@@H]3C[C@@H]21 for me?
0

Give its drug sensitivity score value. Item: Cc1cc(Cn2nnc3c(-c4ccco4)nc(N)nc32)ccc1N
0

Entry under review: O=C(NCCN1CCC2(CC1)C(=O)NCN2c1cccc(F)c1)c1ccc(F)c(F)c1 . Reported drug sensitivity score?
0

Quick check: drug sensitivity score of COc1ccc(CN(CCN(C)C)c2ncccn2)cc1 ?
0

---

# System: Vero E6
# protocol-text: cell viability relative to DMSO; higher = less toxic
# condition-description: 72 h; 100 nM
measurement-type: cell viability (%)
A number alone suffices; assume %.

Examples with answers:
{"compound": "C=C1C(=O)O[C@@H]2[C@H]3C(C)=CC[C@@]34O[C@@]4(C)CC[C@@H]12", "target-under-test": "Vero E6", "cell viability (%)": 110}
{"compound": "C[C@@H]1NC(=O)[C@@H]2CCCN2C(=O)[C@H](CC(N)=O)NC(=O)[C@@H]2CSSC[C@H](N)C(=O)N[C@H]3CSSC[C@H](NC1=O)C(=O)N[C@@H]([C@@H](C)O)C(=O)NCC(=O)N[C@H](C(=O)N[C@@H](Cc1ccc(O)cc1)C(=O)O)CSSC[C@H](NC(=O)[C@H](Cc1ccc(O)cc1)NC(=O)[C@H](CCC(=O)O)NC3=O)C(=O)N2 [linaclotide]", "target-under-test": "Vero E6", "cell viability (%)": 104}

Next compound, please.
Return reported cell viability; argument: CC(O)CC(=O)O (stereo not drawn) [beta-hydroxybutyrate]
93.3

---

# Test system: U2OS
# protocol-text: cell viability relative to DMSO; higher = less toxic
# condition-description: 72 h; 10000 nM
Quick list: cell viability per entry.
Write down the numeric answer in % and omit the unit.

{"compound": "CCS(=O)(=O)Nc1ccc2c(c1)/C(=C(/Nc1ccc(CN3CCCCC3)cc1)c1ccccc1)C(=O)N2 [hesperadin]", "target-under-test": "U2OS", "measured-result": 0}
{"compound": "O=C(O)c1ccc(-c2ccc3cc(O)c(C45CC6CC(CC(C6)C4)C5)cc3c2)cc1 [CD-1530]", "target-under-test": "U2OS", "measured-result": 86.2}
{"compound": "O=C1CS[C@@H](c2ccccc2Cl)c2cc(Cl)ccc2N1 (racemic)", "target-under-test": "U2OS", "measured-result": 102}

Requested read-out: cell viability. Entry: O=C1Cc2cc(CCN3CCN(c4nsc5ccccc45)CC3)c(Cl)cc2N1 [ziprasidone]
96.4

Which cell viability value belongs to CN(C)CCN1C(=O)c2cccc3cc(N)cc(c23)C1=O [amonafide] ?
64.6

Endpoint output: cell viability of CCOC(=O)[C@H](CCc1ccccc1)N[C@@H](C)C(=O)N1C(=O)N(C)C[C@H]1C(=O)O [imidapril] . Value?
102

Entry CC(C)(C(=O)NCC(F)(F)C(F)(F)F)C(=O)N[C@@H]1C(=O)Nc2ccccc2-c2ccccc21 [RG4733] has what cell viability?
97.3

Quick one: cell viability for CCC(=O)NO [ZAMI-633] ?
105

Dear colleague, I am looking for the recorded cell viability of the following compound: NCC(CC(=O)O)c1ccccc1 (centres undefined) [fenigam]
98.3

Query: cell viability; subject: CC(C)C[C@H](NC(=O)[C@@H](COC(C)(C)C)NC(=O)[C@H](Cc1ccc(O)cc1)NC(=O)[C@H](CO)NC(=O)[C@H](Cc1c[nH]c2ccccc12)NC(=O)[C@H](Cc1cnc[nH]1)NC(=O)[C@@H]1CCC(=O)N1)C(=O)N[C@@H](CCCNC(=N)N)C(=O)N1CCC[C@H]1C(=O)NNC(N)=O [goserelin-acetate]
96.7

Endpoint output: cell viability of O=C(O)c1ccccc1-c1ccc(C(F)(F)F)cc1 [xenalipin] . Value?
105

---

# Test system: Caco-2
# protocol-text: cell viability relative to DMSO; higher = less toxic
# condition-description: 72 h; 10 nM
measurement-type: cell viability (%)
Provide the reading as a plain figure in %.

Completed entries (count: 5):
{"molecule": "COc1ccc(COc2ccc(CC#N)cc2)cc1", "cell viability [%]": 93.9}
{"molecule": "CC[C@H]1[C@@H]2C[C@H]3[C@@H]4N(C)c5ccccc5[C@]45C[C@@H]([C@@H]2[C@H]5O)N3[C@@H]1O", "cell viability [%]": 94}
{"molecule": "COc1ccc(COc2cc3oc(=O)c4cc(C(C)O)ccc4c3cc2OC)cc1 (configuration not stated)", "cell viability [%]": 94.1}
{"molecule": "Cc1cc2c(s1)Nc1ccccc1N=C2N1CCN(C)CC1", "cell viability [%]": 91.5}
{"molecule": "CCN(CCCc1ccccc1)CCCc1ccccc1", "cell viability [%]": 93.6}

Recall the recorded cell viability for CC1(C)CC(Oc2ccc(-c3ccc(-c4cn[nH]c4)cc3O)nn2)CC(C)(C)N1 with Caco-2 and state it.
108

Missing value: cell viability, Caco-2, entry CCOC(=O)c1ccc(OC(=O)CCCCCNC(=N)N)cc1 [gabexate] . Fill in?
95.6

---

# Tested on: Caco-2
# protocol-text: cell viability relative to DMSO; higher = less toxic
# condition-description: 72 h; 100 nM
measurement-type: cell viability

Worked cases, cell viability given:
{"compound": "O=c1ccc2ccccc2o1 [coumarin]", "cell viability": "99.2%"}
{"compound": "CN(C)c1ccc(/C=C2\\C(=O)Nc3ccccc32)cc1 [SU4312]", "cell viability": "97.5%"}
{"compound": "CN/C(=N\\c1ccc(C2=NNC(=O)CC2C)cc1)NC#N (stereo not given) [siguazodan]", "cell viability": "97.2%"}
{"compound": "CCOC(=O)C1=C(COCCN)NC(C)=C(C(=O)OC)C1c1ccccc1Cl (stereo not given) [amlodipine]", "cell viability": "98.2%"}
{"compound": "Clc1ccccc1C(c1ccccc1)(c1ccccc1)n1ccnc1 [clotrimazole]", "cell viability": "96.2%"}

Sample CCc1cccc(CC)c1NC(=O)N1Cc2[nH]nc(NC(=O)c3ccc(N4CCN(C)CC4)cc3)c2C1 — what was its cell viability?
98.7%

I have this compound here, Cc1ccnc2c1NC(=O)c1cccnc1N2C1CC1 [nevirapine] , and I need its recorded cell viability.
101%

Which cell viability value belongs to O=C(O)[C@@H]1C[C@@H](C2CCCCC2)CN1C(=O)CP(=O)(O)CCCCc1ccccc1 [fosinoprilat] ?
105%

Can you share its cell viability? I mean this compound: CCN(CCCc1ccccc1)CCCc1ccccc1 [alverine]
99.2%

Recorded cell viability of O=C(O)c1ccccc1-c1ccc(C(F)(F)F)cc1 [xenalipin] , please.
99%

---

Quick reference: drug sensitivity score of the listed items.
# System: Calu-3
# protocol-text: drug sensitivity score (DSS) for viability; higher = more toxic; extreme values may be limits of the assay
# condition-description: 72 h

Reported drug sensitivity score for Calu-3, given Nc1ncccc1-c1nc2ccc(-c3ccccc3)nc2n1-c1ccc(C2(N)CCC2)cc1 [ARQ-092] ?
8.7

Observed drug sensitivity score on Calu-3 for O[C@@H](C[C@H]1c2ccccc2-c2cncn21)C1CCCCC1 [NLG919] , please.
0.1

Entry CC1(C)C(=O)N(CCN2CCC(C(=O)c3ccc(F)cc3)CC2)c2ccccc21 , system Calu-3: what drug sensitivity score was measured?
0

# value lookup — system Calu-3, readout drug sensitivity score, item COc1ccccc1N1CCN(CCCCNC(=O)c2ccc(-c3ccc(C(C)=O)cc3)cc2)CC1
0

Write down the reported drug sensitivity score of O=C1OC2(c3ccc(O)cc3Oc3cc(O)ccc32)c2ccccc21 [fluorescein] , test system: Calu-3.
0

What value of drug sensitivity score on Calu-3 does Nc1ncc(Cc2ccc(Br)cc2)s1 have?
0

Provide value of drug sensitivity score for this record tested with Calu-3: Nc1nc(=O)n([C@@H]2O[C@H](CO)[C@@H](O)[C@@H]2F)cc1I [fiacitabine]
0

What measured drug sensitivity score is associated with CCCCNC(=O)NS(=O)(=O)c1ccc(C)cc1 [tolbutamide] on Calu-3?
0

# get_value(readout= drug sensitivity score, system= Calu-3) for Nc1ncnc2c1ncn2[C@@H]1O[C@H](COP(=O)(O)OP(=O)(O)OP(=O)(O)O)[C@@H](O)[C@H]1O [ADENOSINE TRIPHOSPHATE DISODIUM]
0

Value source: the supplement of paper PMC13380429
